Test system: 885724-159-R-J1-PDC complex spheroid viability;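 further: spheroids exposed to agents for seven days before readout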
experiment: Anticancer human tumor 885724-159-R-J1-PDC patient-derived pancreatic adenocarcinoma cell line growth inhibition [GQUAD]; active means viability on the fitted dose curve at most 10% of control; inactive means the rest
test conditions: second compound 3.16 µM; first compound 0.316 µM
Text: DNA G-quadruplex Stabilizer Agents in Combinations in Complex Spheroids A high-throughput screen of multi-cell type tumor spheroids was designed to identify active combinations of DNA G-quadruplex stabilizer agents and targeted small molecules. […] Compounds. […] If the clinical Cmax for an agent had not been determined, the highest concentration tested was 10 microM. […]
Outcome codes: YES (active), NO (inactive)

• C=CCn1c(=O)c2cnc(Nc3ccc(N4CCN(C)CC4)cc3)nc2n1-c1cccc(C(C)(C)O)n1 + Cc1[nH]c2ccc(F)cc2c1-c1nc2c3cccnc3c3ncccc3c2[nH]1 = YES
• Cc1[nH]c2ccccc2c1CCNCc1ccc(/C=C/C(=O)NO)cc1 + CN(C)c1ccc(Nc2c3ccc(NC(=O)CCN4CCCC4)cc3nc3cc(NC(=O)CCN4CCCC4)ccc23)cc1 = NO
• O=c1[nH]cc(F)c(=O)[nH]1 + Cc1[nH]c2ccc(F)cc2c1-c1nc2c3cccnc3c3ncccc3c2[nH]1 = NO
• CC1COCCN1c1cc(C2(O)CC3CCC(C2)O3)c2cnn(-c3ccn[nH]3)c2n1 (configuration not stated) + Cc1cnc(CNC(=O)c2c(=O)c3ccc(N4CCCN(C)CC4)nc3n3c2sc2ccccc23)cn1 = NO
• Nc1ccn(C2OC(CO)C(O)C2(F)F)c(=O)n1 (configuration not stated) + Cc1cnc(CNC(=O)c2c(=O)c3ccc(N4CCCN(C)CC4)nc3n3c2sc2ccccc23)cn1 = NO
• Nc1ccn(C2OC(CO)C(O)C2(F)F)c(=O)n1 (configuration not stated) + CN(C)c1ccc(Nc2c3ccc(NC(=O)CCN4CCCC4)cc3nc3cc(NC(=O)CCN4CCCC4)ccc23)cc1 = NO
• O=C(c1cc(Cc2n[nH]c(=O)c3ccccc23)ccc1F)N1CCN(C(=O)C2CC2)CC1 + Cc1cnc(CNC(=O)c2c(=O)c3ccc(N4CCCN(C)CC4)nc3n3c2sc2ccccc23)cn1 = NO
• CCCS(=O)(=O)Nc1ccc(F)c(C(=O)c2c[nH]c3ncc(-c4ccc(Cl)cc4)cc23)c1F + Cc1cnc(CNC(=O)c2c(=O)c3ccc(N4CCCN(C)CC4)nc3n3c2sc2ccccc23)cn1 = NO
• CC[C@@]1(O)C(=O)OCc2c1cc1n(c2=O)Cc2cc3c(CN(C)C)c(O)ccc3nc2-1 + Cc1cnc(CNC(=O)c2c(=O)c3ccc(N4CCCN(C)CC4)nc3n3c2sc2ccccc23)cn1 = NO
• C#Cc1c(F)ccc2cc(O)cc(-c3ncc4c(N5CC6CCC(C5)N6)nc(OCC56CCCN5CC(F)C6)nc4c3F)c12 (configuration not stated) + CN(C)c1ccc(Nc2c3ccc(NC(=O)CCN4CCCC4)cc3nc3cc(NC(=O)CCN4CCCC4)ccc23)cc1 = NO
• O=C(NO)c1cnc(N2CCN(S(=O)(=O)c3ccc4ccccc4c3)CC2)nc1 + Cc1[nH]c2ccc(F)cc2c1-c1nc2c3cccnc3c3ncccc3c2[nH]1 = NO
• O=c1[nH]cc(F)c(=O)[nH]1 + CN(C)c1ccc(Nc2c3ccc(NC(=O)CCN4CCCC4)cc3nc3cc(NC(=O)CCN4CCCC4)ccc23)cc1 = NO
